Where these numbers come from: patent EP1739090A2

- SUBJECT OF TEST: T1, IFNAR2/Fc fusion protein (extracellular domain of the human IFNAR2 receptor chain fused to the hinge, CH2 and … (human, UniProt P48551 27-243))
- T1 construct: extracellular domain; Expressed in CHO cells, purified on protein A, captured on plates by mouse anti-human IgG1 mAb CDG5-AA9; also called IFNAR2-ectodomain/Fc fusion protein; IFNAR/Fc; not shown: human IgG1 heavy chain constant region: hinge, CH2 and CH3 domains
- T1 sequence (looked up): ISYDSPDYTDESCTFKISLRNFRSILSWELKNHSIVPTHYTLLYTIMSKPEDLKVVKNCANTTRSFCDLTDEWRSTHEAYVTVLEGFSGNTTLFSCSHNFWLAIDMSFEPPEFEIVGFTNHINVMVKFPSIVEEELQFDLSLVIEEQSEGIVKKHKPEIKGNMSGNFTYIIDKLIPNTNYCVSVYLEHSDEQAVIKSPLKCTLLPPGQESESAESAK
- METHOD: ELISA on IFNAR2/Fc captured by anti-human IgG1 mAb
PARAMETER: binding result

his tagged-interferon-beta alanine substitution mutant AB1 (ligand, Tested as conditioned medium of EBNA 293 cells) SGGHHHHHHSSGDDDDKMSYNLLGFLQRSSNFQCQKLLWQLNGRAAACAADRMNFDIPEEIKQLQQFQKEDAALTIYEMLQNIFAIFRQDSSSTGWNETIVENLLANVYHQINHLKTVLEEKLEKEDFTRGKLMSSLHLKRYYGRILHYLKAKEYSHCAWTIVRVEILRNFYFINRLTGYLRN : no binding
his tagged-interferon-beta alanine substitution mutant A2 (ligand, Tested as conditioned medium of EBNA 293 cells) SGGHHHHHHSSGDDDDKMSYNLLGFLQRSSNAACAALLAALNGRLEYCLKDRMNFDIPEEIKQLQQFQKEDAALTIYEMLQNIFAIFRQDSSSTGWNETIVENLLANVYHQINHLKTVLEEKLEKEDFTRGKLMSSLHLKRYYGRILHYLKAKEYSHCAWTIVRVEILRNFYFINRLTGYLRN : no binding
his tagged-interferon-beta alanine substitution mutant AB2 (ligand, Tested as conditioned medium of EBNA 293 cells) SGGHHHHHHSSGDDDDKMSYNLLGFLQRSSNFQCQKLLWQLNGRLEYCLKDRAAFAIPAEIKQLQQFQKEDAALTIYEMLQNIFAIFRQDSSSTGWNETIVENLLANVYHQINHLKTVLEEKLEKEDFTRGKLMSSLHLKRYYGRILHYLKAKEYSHCAWTIVRVEILRNFYFINRLTGYLRN : no binding
